B1: TPR 5TU (parent)
chain: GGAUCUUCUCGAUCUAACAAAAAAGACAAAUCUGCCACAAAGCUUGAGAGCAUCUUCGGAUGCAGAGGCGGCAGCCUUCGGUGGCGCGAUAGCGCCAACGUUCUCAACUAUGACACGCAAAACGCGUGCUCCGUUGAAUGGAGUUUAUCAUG

variants of: B1; test: polymerase ribozyme fitness, log enrichment relative to wild type (log ratio); higher = more active; in vitro selection for triplet polymerase activity
This sample holds only a part of the variants without activity.
OBSERVED_PROPERTY: polymerase ribozyme fitness (log ratio)

Some solved cases for reference:
variant_label="G50C G92A C116U U151C" observed_property="polymerase ribozyme fitness (log ratio)" result="≤ -4.2"
variant_label="C27A C38G C43U C85U G133A U144C" observed_property="polymerase ribozyme fitness (log ratio)" result="≤ -4.2"
variant_label="A19U U44G G50C A73G C76A G140A" observed_property="polymerase ribozyme fitness (log ratio)" result="≤ -4.2"
variant_label="U7A C14A A23C C75G C85U" observed_property="polymerase ribozyme fitness (log ratio)" result="≤ -4.2"
variant_label="U55A G62C G81A" observed_property="polymerase ribozyme fitness (log ratio)" result=-3.98

[in] Query (variant): G94A C105A ; field requested: polymerase ribozyme fitness (log ratio)
[out] -1.65

[in] Would you mind telling me what polymerase ribozyme fitness (log ratio) value was observed for A3G G83A G86U C118U ?
[out] -3.29

[in] # get_value(readout='polymerase ribozyme fitness (log ratio)', item= C57G C79U )
[out] -2.13

[in] Which polymerase ribozyme fitness (log ratio) is reported for this variant? U31A G50A C51G G59A G68C G86C G94U G124U
[out] ≤ -4.2

[in] So what's the measured polymerase ribozyme fitness (log ratio) for this one? U4G A28G A91G C93U A115U G133A
[out] ≤ -4.2

[in] Any idea what polymerase ribozyme fitness (log ratio) was measured for G92C C105U ?
[out] -0.217

[in] Query: polymerase ribozyme fitness (log ratio); subject: C54A C79A C87U U144C A150G U151A
[out] ≤ -4.2

[in] Which measured polymerase ribozyme fitness (log ratio) value corresponds to A3C A12G G25C A52C C93U C116A ?
[out] -3.91

[in] Which polymerase ribozyme fitness (log ratio) value is on record for A26U C43U U53A G100C ?
[out] ≤ -4.2

[in] Quick one: polymerase ribozyme fitness (log ratio) for C10U U55A ?
[out] -2.91

[in] Any idea what its polymerase ribozyme fitness (log ratio) is? The variant is G68A A122G G133C
[out] ≤ -4.2

[in] What does the data say about its polymerase ribozyme fitness (log ratio)? Entry: U82C C95U C131G A142C
[out] ≤ -4.2

[in] Reported polymerase ribozyme fitness (log ratio), variant A26U A40C G68C G71U U82A A119C C125A A150C : ____
[out] ≤ -4.2

[in] Recorded polymerase ribozyme fitness (log ratio) of G59U U90G A91G C95A G126C U146G , please.
[out] ≤ -4.2

[in] Could you tell me which polymerase ribozyme fitness (log ratio) is on file for A47G U56A U134G ?
[out] -2.17

[in] // returns reported polymerase ribozyme fitness (log ratio) for input A37C G70A C85A G92A C93A
[out] ≤ -4.2

[in] Fill in the blank: the reported polymerase ribozyme fitness (log ratio) of C57G U146A is ____.
[out] -0.273
